biological target: human recombinant adrenergic α2A receptor (Homo sapiens, UniProt P08913); construct: expressed in transfected cells; host or cells: insect Sf9 cells; test: Radioligand binding, adrenergic α2A ([3H]MK-912); details: 0.1 μM compound; read-out: Percentage inhibition of ligand binding, Adrenergic α2A
Sequence (P08913 whole entry): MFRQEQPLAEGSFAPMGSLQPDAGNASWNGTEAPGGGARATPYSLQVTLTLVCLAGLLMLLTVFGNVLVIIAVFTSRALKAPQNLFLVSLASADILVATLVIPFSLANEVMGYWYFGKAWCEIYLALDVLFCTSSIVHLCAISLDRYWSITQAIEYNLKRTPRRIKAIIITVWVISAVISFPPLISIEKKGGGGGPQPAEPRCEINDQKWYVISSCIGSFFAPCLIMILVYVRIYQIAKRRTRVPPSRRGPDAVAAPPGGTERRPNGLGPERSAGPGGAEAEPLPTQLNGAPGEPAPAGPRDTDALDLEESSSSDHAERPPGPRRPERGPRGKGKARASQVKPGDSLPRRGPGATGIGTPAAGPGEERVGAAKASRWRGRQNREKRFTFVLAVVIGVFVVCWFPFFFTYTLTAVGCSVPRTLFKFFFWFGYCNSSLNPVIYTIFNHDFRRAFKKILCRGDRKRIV
reported-property: inhibition at 0.1 µM (%)

{"columns": ["compound", "assay-target", "result-value"],
 "data": [
  ["Cc1ccc2c(c1)c1c(n2CC(C)c2ccncc2)CCN(C)C1 (centres unmarked)", "human recombinant adrenergic α2A receptor (Homo sapiens, UniProt P08913)", 63],
  ["Cc1ccc2c(c1)c1c(n2C#Cc2cnc3ccccc3c2)CCN(C)C1", "human recombinant adrenergic α2A receptor (Homo sapiens, UniProt P08913)", 59],
  ["CSc1cccc(/C(C)=C/n2c3c(c4cc(Cl)ccc42)CN(C)CC3)c1", "human recombinant adrenergic α2A receptor (Homo sapiens, UniProt P08913)", 69],
  ["C/C(=C/n1c2c(c3cc(Cl)ccc31)CN(C)CC2)c1cc(F)c(F)cc1Cl", "human recombinant adrenergic α2A receptor (Homo sapiens, UniProt P08913)", 66],
  ["Cc1ccc2c(c1)c1c(n2C#Cc2ccc(S(N)(=O)=O)cc2)CCN(C)C1", "human recombinant adrenergic α2A receptor (Homo sapiens, UniProt P08913)", 58]
]}

[1] C/C(=C\n1c2c(c3cc(C)ccc31)CN(C)CC2)c1ccc2[nH]cnc2c1
[2] Cc1ccc2c(c1)c1c(n2CC(O)c2ccncc2)CCN(CCS(=O)(=O)O)C1 (centres unmarked)
[3] CN1CCc2c(c3cc(OC(F)(F)F)ccc3n2CC(O)c2ccncc2)C1 (centres unmarked)
Hey, can you sort those compounds up there by inhibition at 0.1 µM, smallest first? Could you list the labels in the order requested?
3, 2, 1
(3: -11%, 2: 4%, 1: 75%)

[1] C/C(=C\n1c2c(c3cc(Cl)ccc31)CCN(C)CC2)c1cccnc1
[2] CN1CCc2c(c3cc(C(C)(C)C)ccc3n2CC(O)c2ccncc2)C1 (centres unmarked)
Of 1 versus 2 , which is the one with smaller reported inhibition at 0.1 µM? Your choice should be expressed through its label.
2
(2: 5%, 1: 76%)

[P] Cc1ccc2c(c1)c1c(n2C#Cc2cccc3cnccc23)CCN(C)C1
[Q] Cc1cnc2c(c1)c1c(n2CC(O)c2ccc(C)nc2)CCN(C)C1 (single isomer, unassigned) [II-100a]
[R] Cc1ccc2c(c1)c1c(n2CC(O)c2ccc(O)c(O)c2)CCN(C)C1 (centres unmarked)
Arrange the 3 compounds from largest to smallest inhibition at 0.1 µM. Could you list the labels in the order requested?
P, Q, R
(P: 73%, Q: 7%, R: -2%)

###

test system: SH-SY5Y cells over-expressing α-syn; assay: Cell viability (MTS reduction) in SH-SY5Y cells over-expressing α-synuclein; assay type: cell-based; settings: Homo sapiens, 336 h, α-syn over-expression (−dox), compounds at 10 nM, +dox control = 100, 14 days, read-out: Relative cell viability protection
reported-property: viability at 0.01 µM (%)
# number only, unit % dropped from output

Example cases with answers are listed next.
{"columns": ["molecule", "viability at 0.01 µM / %"],
 "data": [
  ["Cc1ccc2c(c1)c1c(n2CC(O)c2ccncc2)CCN(C)C1 (centres unmarked)", 78.3],
  ["Cc1ccc2c(c1)c1c(n2CC(C)(O)c2cccnc2)CCN(C)C1 (centres unmarked)", 85.3],
  ["Cc1ccc2c(c1)c1c(n2CC(O)c2ccncc2)CCNC1 (centres unmarked) [Cpd39a]", 80.8],
  ["Cc1ccc2c(c1)c1c(n2CCc2ccc(C)nc2)CCN(C)C1 [Dimebon (DMB), dimebon, reference compound]", 85.7]
]}

Could you now look at the following molecule, please?
GET /values?readout=viability at 0.01 µM&item= CN1CCc2c(c3cc(Cl)ccc3n2CC(O)c2ccncc2)C1 (centres unmarked)
77.5
